Each record here notes measured Activity.
target: Peroxisome proliferator-activated receptor gamma (Homo sapiens) (UniProt P37231); experiment: Transactivation of GAL4-fused human PPARgamma ligand binding domain expressed in African green monkey COS7 cells at 10 uM after 42 hrs by dual luciferase reporter gene assay relative to pioglitazone; format: cell-based; conditions: COS-7
Respond with the bare value in %.

Below are worked cases with known answers.
COc1ccc(CCNc2ccc(C(F)(F)F)cc2/N=C/c2cc(Cl)cc(Cl)c2O)cc1OC 9.9
Oc1c(O)c(CN2CCCCC2)c2ccccc2c1CN1CCCCC1 2.7

Please look at the following molecule next.
Query: Hello, please tell me recorded Activity for this one: Cc1nc(CSc2nnc(-c3ccc(C(F)(F)F)cc3)n2Cc2ccco2)cs1
Result: 2.8

###

Each record here notes measured Activity.
molecular target: Peroxisome proliferator-activated receptor gamma (Homo sapiens) (UniProt P37231); test: Transactivation of GAL4-fused human PPARgamma ligand binding domain expressed in African green monkey COS7 cells at 10 uM after 42 hrs by dual luciferase reporter gene assay relative to pioglitazone; type: cell-based; conditions: COS-7
Respond with the bare value in %.

Below are worked cases with known answers.
O=c1n(Cc2ccc(Cl)cc2Cl)c2ccccc2n1Cc1ccc(Cl)cc1Cl 9.1
N#Cc1c(SCc2ccccc2)nc2c(c1/C=C\c1ccccc1)CCC2 14.4

Query: Report Activity under test system Peroxisome proliferator-activated receptor gamma (Homo sapiens) (UniProt P37231) for Cc1ccc(Sc2c(C(=O)O)cnc3c2c(C)nn3C)cc1 .
Result: 7

Query: Report Activity under test system Peroxisome proliferator-activated receptor gamma (Homo sapiens) (UniProt P37231) for O=C(CSCc1ccc(Cl)c(Cl)c1)c1ccc(OCc2ccc([N+](=O)[O-])cc2)cc1 .
Result: 11.1

Query: Report Activity under test system Peroxisome proliferator-activated receptor gamma (Homo sapiens) (UniProt P37231) for O=S(=O)(Nc1cc(Cc2cc(NS(=O)(=O)c3ccccc3)cc(C(F)(F)F)c2)cc(C(F)(F)F)c1)c1ccccc1 .
Result: 23.7

Query: Report Activity under test system Peroxisome proliferator-activated receptor gamma (Homo sapiens) (UniProt P37231) for O=C(CN1c2ccccc2Sc2ccccc21)NNC(=S)NCc1ccccc1 .
Result: 41.9

###

Molecular target: Peroxisome proliferator-activated receptor gamma (Homo sapiens)
Sequence (P37231 whole entry): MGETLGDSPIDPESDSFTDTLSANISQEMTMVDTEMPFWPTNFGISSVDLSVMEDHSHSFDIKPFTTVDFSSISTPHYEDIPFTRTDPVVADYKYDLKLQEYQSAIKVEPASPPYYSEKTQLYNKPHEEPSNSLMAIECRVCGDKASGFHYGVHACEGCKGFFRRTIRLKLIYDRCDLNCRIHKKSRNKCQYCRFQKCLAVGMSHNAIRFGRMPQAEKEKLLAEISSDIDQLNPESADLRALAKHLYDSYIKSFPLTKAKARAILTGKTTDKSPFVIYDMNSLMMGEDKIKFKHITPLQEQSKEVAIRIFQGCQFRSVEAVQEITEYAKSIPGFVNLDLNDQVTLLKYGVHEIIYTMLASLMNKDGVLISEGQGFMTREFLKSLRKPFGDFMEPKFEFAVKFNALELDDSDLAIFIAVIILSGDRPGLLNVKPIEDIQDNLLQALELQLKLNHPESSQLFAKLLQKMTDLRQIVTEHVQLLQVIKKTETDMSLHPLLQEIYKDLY
Assay: Transactivation of GAL4-fused human PPARgamma ligand binding domain expressed in African green monkey COS7 cells after 42 hrs by dual luciferase reporter gene assay
Assay type: cell-based, COS-7
metric-name: pEC50
Note on units: pEC50 is unitless, being -log10 of a concentration expressed in mol/L.

O=S(=O)(Nc1cc(Cc2cc(NS(=O)(=O)c3ccccc3)cc(C(F)(F)F)c2)cc(C(F)(F)F)c1)c1ccccc1 5.47

Please look at the following molecule next.
Query: Hello, please tell me recorded pEC50 for this one: O=C(CN1c2ccccc2Sc2ccccc21)NNC(=S)NCc1ccccc1
Result: 4.66
